- test-target: T1, human ADAM9 (huADAM9) on cells (human, UniProt Q13443 206-819)
- T1 construct: The pro-domain is said to be cleaved (Arg-205/Ala-206) in the mature protein; also called Cho-K/huADAM9; Cho-K/hu ADAM9.2
- T1 sequence: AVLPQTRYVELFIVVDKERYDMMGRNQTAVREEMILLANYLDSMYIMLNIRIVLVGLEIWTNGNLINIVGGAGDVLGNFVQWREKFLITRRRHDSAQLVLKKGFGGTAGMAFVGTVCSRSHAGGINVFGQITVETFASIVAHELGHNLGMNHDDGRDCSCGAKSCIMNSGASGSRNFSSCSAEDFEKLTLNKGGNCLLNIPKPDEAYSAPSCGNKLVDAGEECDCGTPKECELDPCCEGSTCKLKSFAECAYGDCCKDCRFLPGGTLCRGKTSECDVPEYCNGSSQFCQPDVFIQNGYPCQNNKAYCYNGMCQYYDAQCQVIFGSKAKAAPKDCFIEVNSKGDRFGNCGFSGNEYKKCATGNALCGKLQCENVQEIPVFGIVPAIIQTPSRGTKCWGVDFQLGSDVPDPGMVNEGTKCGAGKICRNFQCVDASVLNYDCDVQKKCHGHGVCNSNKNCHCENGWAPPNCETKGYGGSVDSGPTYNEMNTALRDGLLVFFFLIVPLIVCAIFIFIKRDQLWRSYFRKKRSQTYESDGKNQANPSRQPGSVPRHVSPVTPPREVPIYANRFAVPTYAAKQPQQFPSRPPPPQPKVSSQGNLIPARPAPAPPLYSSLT
- experiment-summary: FACS, 300-19 cells expressing human ADAM9
Under this convention, 1 denotes EC50 strictly below 0.7 nM and -1 denotes EC50 at or above 0.7 nM.

INSERT INTO results (binder, cat) VALUES
  ('chMAB-A (antibody, V domains shown, also called chimeric version of MAB-A; chimeric chMAB-A) VH: QVQLQQPGAELVKPGASVKLSCKASGYTFTSYWMHWVKQRPGQGLEWIGEIIPINGHTNYNEKFKSKATLTLDKSSSTAYMQLSSLASEDSAVYYCARGGYYYYGSRDYFDYWGQGTTLTVSS VL: DIVLTQSPASLAVSLGQRATISCKASQSVDYDGDSYMNWYQQIPGQPPKLLIYAASDLESGIPARFSGSGSGTDFTLNIHPVEEEDAATYYCQQSHEDPFTFGGGTKLEIK', 1),
  ('hMAB-A(2C.2)-DGN549 (antibody, human IgG1, kappa, V domains shown, lysine-linked DGN549, sites not given; DGN549-L (compound D2) linked to lysine residues of the antibody, sites not given; average 2.8 mol DGN549/mol antibody) VH: EVQLVESGGGLVKPGGSLRLSCAASGFTFSSYWMHWVRQAPGKGLEWVGEIIPIFGHTNYNEKFKSRFTISLDNSKNTLYLQMGSLRAEDTAVYYCARGGYYYYPRFGWLDYWGQGTTVTVSS VL: DIVMTQSPDSLAVSLGERATISCKASQSVDYSGDSYMNWYQQKPGQPPKLLIYAASDLESGIPARFSGSGSGTDFTLTISSLEPEDFATYYCQQSHEDPFTFGQGTKLEIKR', -1),
  ('hMAB-A(2C.2)-sSPDB-DM4 (antibody, human IgG1, kappa, V domains shown, lysine-linked DM4, sites not given; DM4 linked through sulfo-SPDB to lysine residues of the antibody, sites not given; average 3.2 mol DM4/mol antibody) VH: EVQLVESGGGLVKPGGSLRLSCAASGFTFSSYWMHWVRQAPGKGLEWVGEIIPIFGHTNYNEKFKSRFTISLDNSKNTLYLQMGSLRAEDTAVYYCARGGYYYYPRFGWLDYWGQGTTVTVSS VL: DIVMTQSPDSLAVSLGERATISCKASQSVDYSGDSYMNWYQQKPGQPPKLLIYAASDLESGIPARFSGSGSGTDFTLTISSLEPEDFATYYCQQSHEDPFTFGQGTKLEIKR', -1),
  ('chMAB-A-DGN549 (antibody, V domains shown, lysine-linked DGN549, sites not given; DGN549-L (compound D2) linked to lysine residues of the antibody, sites not given; average 2.7 mol DGN549/mol antibody) VH: QVQLQQPGAELVKPGASVKLSCKASGYTFTSYWMHWVKQRPGQGLEWIGEIIPINGHTNYNEKFKSKATLTLDKSSSTAYMQLSSLASEDSAVYYCARGGYYYYGSRDYFDYWGQGTTLTVSS VL: DIVLTQSPASLAVSLGQRATISCKASQSVDYDGDSYMNWYQQIPGQPPKLLIYAASDLESGIPARFSGSGSGTDFTLNIHPVEEEDAATYYCQQSHEDPFTFGGGTKLEIK', -1),
  ('hMAB-A (2C.2) (antibody, human IgG1, kappa, V domains shown, IgG1 kappa; also called MAB-A VH(2C); MAB-A VH(2C.2)) VH: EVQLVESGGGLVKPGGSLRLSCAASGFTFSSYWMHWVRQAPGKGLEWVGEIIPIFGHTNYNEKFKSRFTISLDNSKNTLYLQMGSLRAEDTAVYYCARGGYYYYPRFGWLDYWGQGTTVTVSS VL: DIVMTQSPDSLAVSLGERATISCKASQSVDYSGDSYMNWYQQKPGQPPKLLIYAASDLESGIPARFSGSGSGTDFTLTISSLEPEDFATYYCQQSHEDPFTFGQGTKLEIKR', -1);

The reported measurements were obtained from patent US20210388102A1.
